Experiment: Pharmacokinetics and bioavailability of [14C]-MDL 73,745 in Beagle dogs
Format: in vivo, Beagle dog
Settings: dog, in vivo, po, 10 mg/kg, oral 10 mg/kg, dog No. 17

molecule-smiles	half-life
C[Si](C)(C)c1cccc(C(=O)C(F)(F)F)c1	21.4 h

====

Assay: Pharmacokinetics and bioavailability of [14C]-MDL 73,745 in Beagle dogs
Assay type: in vivo, Beagle dog
Settings: dog, in vivo, sc, 10 mg/kg, subcutaneous 10 mg/kg, dog No. 17
measured-metric: Cmax (ng/mL)

compound	measured-metric	readout-unit	recorded-number
C[Si](C)(C)c1cccc(C(=O)C(F)(F)F)c1 [MDL 73,745]	Cmax	ng/mL	68.4

====

Experiment: Pharmacokinetics and bioavailability of [14C]-MDL 73,745 in Beagle dogs
Assay type: in vivo, Beagle dog
Conditions: dog, in vivo, iv, 2 mg/kg, iv 2 mg/kg, dog No. 17; read-out: aVd
measured-metric: Vd (L/kg)

compound	measured-metric	readout-unit	recorded-number
C[Si](C)(C)c1cccc(C(=O)C(F)(F)F)c1 [MDL 73,745]	Vd	L/kg	125

====

Assay: Pharmacokinetics and bioavailability of [14C]-MDL 73,745 in Beagle dogs
Type: in vivo, Beagle dog
Conditions: dog, in vivo, iv, 2 mg/kg, iv 2 mg/kg, dog No. 18; read-out: Cltot

molecule	readout-unit	clearance
C[Si](C)(C)c1cccc(C(=O)C(F)(F)F)c1 [MDL 73,745]	L/h/kg	3.8

====

Assay: Pharmacokinetics and bioavailability of [14C]-MDL 73,745 in Beagle dogs
Format: in vivo, Beagle dog
Conditions: dog, in vivo, po, 10 mg/kg, oral 10 mg/kg, dog No. 18

molecule-smiles	Cmax
C[Si](C)(C)c1cccc(C(=O)C(F)(F)F)c1	15.3 ng/mL

====

Experiment: Pharmacokinetics and bioavailability of [14C]-MDL 73,745 in Beagle dogs
Format: in vivo, Beagle dog
Details: dog, in vivo, topical or ocular, 50 mg/kg, topical dermal cream, 50 mg/kg; normalized to 2 mg/kg iv; read-out: Mean bioavailability (F)

compound	bioavailability
C[Si](C)(C)c1cccc(C(=O)C(F)(F)F)c1 [MDL 73,745]	3%

====

Experiment: Pharmacokinetics and bioavailability of [14C]-MDL 73,745 in Beagle dogs
Assay type: in vivo, Beagle dog
Settings: dog, in vivo, topical or ocular, 10 mg/kg, dermal patch, 10 mg/kg; normalized to 2 mg/kg iv; read-out: Mean bioavailability (F)

molecule-smiles	readout-unit	bioavailability
C[Si](C)(C)c1cccc(C(=O)C(F)(F)F)c1	%	16

====

Assay: Pharmacokinetics and bioavailability of [14C]-MDL 73,745 in Beagle dogs
Format: in vivo, Beagle dog
Conditions: dog, in vivo, sc, 10 mg/kg, subcutaneous 10 mg/kg, dog No. 18

molecule-smiles	half-life / h
C[Si](C)(C)c1cccc(C(=O)C(F)(F)F)c1	32.7

====

Test: Pharmacokinetics and bioavailability of [14C]-MDL 73,745 in Beagle dogs
Assay type: in vivo, Beagle dog
Details: dog, in vivo, po, 10 mg/kg, oral 10 mg/kg, normalized to 2 mg/kg iv, dog No. 19; read-out: F (AUCpo /AUCiv)

molecule-smiles	bioavailability
C[Si](C)(C)c1cccc(C(=O)C(F)(F)F)c1	4.5%
